These entries and their values trace back to patent US5840697A.

Biological target: phosphodiesterase
Assay: calcium-dependent phosphodiesterase assay in the absence of calmodulin
Format: biochemical
Settings: Table III
Method: To sample assay tubes were added the following components: assay buffer, 25 ul; CaCl2, 5 ul; 5'-nucleotidase, 7.5 ul (stock solution is 10 units/ml); calmodulin 5 units; calmodulin inhibitor peptides to obtain the desired final concentration of 50 μM. The volume was then made up to 200 ul with water. Control blanks were prepared replacing the peptides with water. […] The absorbance of the solution were read at 660 nm using water as a blank, identified as control "Calmo." […]
Square brackets hold non-standard residues; d marks the D form. Peptide text beside a SMILES is read from it.
assay-endpoint: IC50 (µM)

INSERT INTO measurements (compound, target_desc, unit_descriptor, recorded_measurement) VALUES
  ('CC[C@@H](C)[C@@H](NC(=O)[C@@H](Cc1c[nH]c2ccccc12)NC(=O)[C@@H](CC(C)C)NC(C)=O)C(=O)N[C@H](Cc1c[nH]cn1)C(=O)N[C@H](Cc1c[nH]cn1)C(=O)N[C@H](Cc1c[nH]c2ccccc12)C(N)=O (Ac-[dL][dW][dI][dH][dH][dW]-NH2)', 'phosphodiesterase', 'µM', 30);

[a] CC[C@@H](C)[C@@H](NC(=O)[C@@H](Cc1c[nH]c2ccccc12)NC(=O)[C@@H](CC(C)C)NC(C)=O)C(=O)N[C@H](Cc1c[nH]cn1)C(=O)N[C@H](CC(C)C)C(=O)N[C@H](Cc1c[nH]c2ccccc12)C(N)=O (Ac-[dL][dW][dI][dH][dL][dW]-NH2)
[b] CC[C@@H](C)[C@@H](NC(=O)[C@@H](CCCNC(=N)N)NC(=O)[C@@H](Cc1c[nH]c2ccccc12)NC(=O)[C@@H](CC(C)C)NC(C)=O)C(=O)N[C@H](CC(C)C)C(=O)N[C@H](Cc1c[nH]c2ccccc12)C(N)=O (Ac-[dL][dW][dR][dI][dL][dW]-NH2)
Task: Which gives the smaller IC50 number: a or b ? State the label of the item chosen.
Output: a
(a: 42 µM, b: 118 µM)

[1] CC(=O)N[C@H](CC(C)C)C(=O)N[C@H](Cc1c[nH]c2ccccc12)C(=O)N[C@H](CCCNC(=N)N)C(=O)N[C@H](Cc1c[nH]cn1)C(=O)N[C@H](Cc1c[nH]cn1)C(=O)N[C@H](Cc1c[nH]c2ccccc12)C(N)=O (Ac-[dL][dW][dR][dH][dH][dW]-NH2)
[2] CC(=O)N[C@H](CC(C)C)C(=O)N[C@H](Cc1c[nH]c2ccccc12)C(=O)N[C@H](CCCNC(=N)N)C(=O)N[C@H](Cc1c[nH]cn1)C(=O)N[C@H](CC(C)C)C(=O)N[C@H](Cc1c[nH]c2ccccc12)C(N)=O (Ac-[dL][dW][dR][dH][dL][dW]-NH2)
Task: Between the entries labelled 1 and 2 , which has a larger IC50 value on record? State the label of the item chosen.
Output: 1
(1: 112 µM, 2: 68 µM)

###

Molecular target: calmodulin (Homo sapiens)
Experiment: calcium-dependent phosphodiesterase assay (calmodulin activity)
Format: biochemical
Conditions: Table I; assayed at 75, 50 and 12.5 μM, average of repeated assays; read-out: Average IC50
pIC50: −log10 of the molar value. Square brackets hold non-standard residues; d marks the D form. Peptide text beside a SMILES is read from it.
assay-endpoint: pIC50

INSERT INTO assay_data (compound, target_desc, assay_endpoint, recorded_measurement) VALUES
  ('CC(=O)N[C@H](CC(C)C)C(=O)N[C@H](CCC(N)=O)C(=O)N[C@H](CCCNC(=N)N)C(=O)N[C@H](Cc1c[nH]cn1)C(=O)N[C@H](CC(C)C)C(=O)N[C@H](CCCNC(=N)N)C(N)=O (Ac-[dL][dQ][dR][dH][dL][dR]-NH2)', 'calmodulin (Homo sapiens)', 'pIC50', 4.60);

[a] CC[C@@H](C)[C@@H](NC(=O)[C@@H](CCCNC(=N)N)NC(=O)[C@@H](CCC(N)=O)NC(=O)[C@@H](CC(C)C)NC(C)=O)C(=O)N[C@H](Cc1c[nH]cn1)C(=O)N[C@H](CCCNC(=N)N)C(N)=O (Ac-[dL][dQ][dR][dI][dH][dR]-NH2)
[b] CC[C@@H](C)[C@@H](NC(=O)[C@@H](Cc1c[nH]c2ccccc12)NC(=O)[C@@H](CC(C)C)NC(C)=O)C(=O)N[C@H](Cc1c[nH]cn1)C(=O)N[C@H](CC(C)C)C(=O)N[C@H](Cc1c[nH]c2ccccc12)C(N)=O (Ac-[dL][dW][dI][dH][dL][dW]-NH2)
Task: Between the entries labelled a and b , which has a larger pIC50 value on record? State the label of the item chosen.
Output: b
(b: 5.44, a: 4.59)

[1] CC[C@@H](C)[C@@H](NC(=O)[C@@H](CCC(N)=O)NC(=O)[C@@H](CC(C)C)NC(C)=O)C(=O)N[C@@H](C(=O)N[C@H](CC(C)C)C(=O)N[C@H](CCCNC(=N)N)C(N)=O)[C@H](C)CC (Ac-[dL][dQ][dI][dI][dL][dR]-NH2)
[2] CC[C@@H](C)[C@@H](NC(=O)[C@@H](Cc1c[nH]c2ccccc12)NC(=O)[C@@H](CC(C)C)NC(C)=O)C(=O)N[C@H](Cc1c[nH]cn1)C(=O)N[C@H](CC(C)C)C(=O)N[C@H](CCCNC(=N)N)C(N)=O (Ac-[dL][dW][dI][dH][dL][dR]-NH2)
Task: Which gives the smaller pIC50 number: 1 or 2 ? State the label of the item chosen.
Output: 1
